Please provide measured inhibition for the entries that follow.
Biological target: Sodium-dependent serotonin transporter (Rattus norvegicus) (UniProt P31652)
Sequence (P31652 whole entry): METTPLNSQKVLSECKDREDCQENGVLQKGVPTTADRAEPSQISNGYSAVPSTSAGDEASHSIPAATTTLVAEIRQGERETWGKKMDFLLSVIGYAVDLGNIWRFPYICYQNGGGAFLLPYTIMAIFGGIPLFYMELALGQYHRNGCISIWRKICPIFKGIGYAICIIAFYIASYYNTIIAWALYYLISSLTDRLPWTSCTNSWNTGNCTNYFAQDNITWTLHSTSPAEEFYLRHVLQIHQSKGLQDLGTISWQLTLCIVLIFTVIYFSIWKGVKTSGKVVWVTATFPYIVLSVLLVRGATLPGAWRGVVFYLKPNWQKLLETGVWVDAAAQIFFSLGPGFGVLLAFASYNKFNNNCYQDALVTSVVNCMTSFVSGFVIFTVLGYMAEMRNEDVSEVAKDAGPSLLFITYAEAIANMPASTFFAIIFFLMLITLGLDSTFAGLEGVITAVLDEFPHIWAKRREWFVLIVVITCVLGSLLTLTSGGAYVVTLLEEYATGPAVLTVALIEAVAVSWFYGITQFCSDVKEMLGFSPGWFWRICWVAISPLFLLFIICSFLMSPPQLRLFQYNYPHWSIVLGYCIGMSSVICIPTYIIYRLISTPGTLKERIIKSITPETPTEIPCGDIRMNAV
Test: Inhibition of serotonin transporter in rat brain tissue assessed as inhibition of [3H]-5-hydroxytryptamine reuptake at 1 uM relative to control
Format: tissue-based
Dear colleague, please return just the value in %, with no unit written.

Exam item: If you can, please state the reported inhibition value of O=C(c1ccc(F)c(Cl)c1)N1CCC(CNCCCc2c[nH]c3ccc(F)cc23)CC1 .
Marked response: 101

Exam item: If you can, please state the reported inhibition value of NC(=O)c1ccccc1C(=O)N1CCC(CNCCCc2c[nH]c3ccc(F)cc23)CC1 .
Marked response: 102

Exam item: If you can, please state the reported inhibition value of Cc1ccc(C(=O)N2CCC(CNCCCc3c[nH]c4ccc(F)cc34)CC2)cc1 .
Marked response: 99

Exam item: If you can, please state the reported inhibition value of O=C(c1ccc(Cl)c(Cl)c1)N1CCC(CNCCCc2c[nH]c3ccc(F)cc23)CC1 .
Marked response: 101

Exam item: If you can, please state the reported inhibition value of Cc1cc(C(=O)N2CCC(CNCCCc3c[nH]c4ccc(F)cc34)CC2)ccc1F .
Marked response: 103

Exam item: If you can, please state the reported inhibition value of O=C(c1ccc(F)c(F)c1)N1CCC(CNCCCc2c[nH]c3ccc(F)cc23)CC1 .
Marked response: 103

Exam item: If you can, please state the reported inhibition value of O=C(c1ccc(F)c(Cl)c1)N1CCC(CNCCCCCc2c[nH]c3ccc(F)cc23)CC1 .
Marked response: 101

Exam item: If you can, please state the reported inhibition value of CN(CCCc1c[nH]c2ccc(F)cc12)CC1CCN(C(=O)c2ccc(F)c(Cl)c2)CC1 .
Marked response: 102

Exam item: If you can, please state the reported inhibition value of O=C(c1ccc(F)c(Cl)c1)N1CCC(CNCCCCc2c[nH]c3ccc(F)cc23)CC1 .
Marked response: 103

Exam item: If you can, please state the reported inhibition value of O=C(c1ccc(F)c(Cl)c1)N1CCC(CNCCc2c[nH]c3ccc(F)cc23)CC1 .
Marked response: 101

Exam item: If you can, please state the reported inhibition value of O=C(c1ccc(F)c(Cl)c1)N1CCC(NCCCc2c[nH]c3ccc(F)cc23)CC1 .
Marked response: 102

Exam item: If you can, please state the reported inhibition value of CCCN(CCCc1c[nH]c2ccc(F)cc12)CC1CCN(C(=O)c2ccc(F)c(Cl)c2)CC1 .
Marked response: 101

Exam item: If you can, please state the reported inhibition value of N#Cc1ccc2[nH]cc(CCCNCC3CCN(C(=O)c4ccc(F)c(Cl)c4)CC3)c2c1 .
Marked response: 103

Exam item: If you can, please state the reported inhibition value of O=C(c1ccc(Cl)cc1)N1CCC(CNCCCc2c[nH]c3ccc(F)cc23)CC1 .
Marked response: 103

Exam item: If you can, please state the reported inhibition value of NC(=O)c1ccc(C(=O)N2CCC(CNCCCc3c[nH]c4ccc(F)cc34)CC2)cc1 .
Marked response: 100

Exam item: If you can, please state the reported inhibition value of O=C(c1ccc(F)cc1)N1CCC(CNCCCc2c[nH]c3ccc(F)cc23)CC1 .
Marked response: 101

Exam item: If you can, please state the reported inhibition value of O=C(c1cccc(Cl)c1)N1CCC(CNCCCc2c[nH]c3ccc(F)cc23)CC1 .
Marked response: 103

Exam item: If you can, please state the reported inhibition value of NC(=O)c1cccc(C(=O)N2CCC(CNCCCc3c[nH]c4ccc(F)cc34)CC2)c1 .
Marked response: 102
